Provide the recorded melting point for the entries that follow.
Where a name gives a salt, the structure may show the parent alone.

Cc1ccc(-c2ccc(COc3ccc4c(c3)CCC(CN(C)C)C4)cc2)cc1.Cl (stereo not drawn): 226 to 228 °C
CSc1ccc(-c2ccc(COc3ccc4c(c3)CCC(CN(C)C)C4)cc2)cc1.Cl (stereo not drawn): 235 to 237 °C
CN(C)CC1CCc2cc(OCc3ccc(-c4cccnc4)cc3)ccc2C1 (stereo not drawn) (as salt: hydrochloride): 212 to 213 °C
CN(C)CC1CCc2ccc(OCc3ccc(-c4ccccc4)cc3)cc2C1.Cl (stereo not drawn): 232 to 233 °C
CN(C)CC1CCc2cc(OCc3cccc(-c4ccc(F)cc4)c3)ccc2C1.Cl (stereo not drawn): 171 to 172 °C
CN(C)CC1CCc2cc(OCc3cccc(-c4ccccc4)c3)ccc2C1.Cl (stereo not drawn): 186 to 190 °C
CN(C)CC1CCc2cc(OCc3ccc(-c4cccc([N+](=O)[O-])c4)cc3)ccc2C1.Cl (stereo not drawn): 223 to 234 °C
COc1ccccc1-c1ccc(COc2ccc3c(c2)CCC(CN(C)C)C3)cc1.Cl (stereo not drawn): 140 to 141 °C

Okay, next one:
Q: Read off the recorded melting point for c1ccc(-c2ccc(COc3ccc4c(c3)CCC(CCN3CCC(N5CCCCC5)CC3)C4)cc2)cc1 (stereo not drawn) (as salt: hydrochloride)
A: 288 to 291 °C
